Each recorded value in this set is attributed to patent US20090312414A1.

Reported IC50, CB1 receptor (Homo sapiens, UniProt P21554).
readout_label: IC50

{"compound": "CCCCCCC(C)(C)c1cc(O)c2c(c1)OC1CCCCCC21 (stereo not shown) [Formula III]", "readout_label": "IC50", "meas_value": "92 nM"}
{"compound": "CCCCCCC(C)(C)c1cc(O)c([C@H]2CC(=O)[C@H]3C[C@@H]2C3(C)C)c(OC(=O)/C=C/C(=O)O)c1 [Formula I]", "readout_label": "IC50", "meas_value": "660 nM"}
{"compound": "O=S(=O)(NCC1CC1)c1ccc(Nc2ccc(Cl)cc2Cl)cc1C(F)(F)F [Formula IV]", "readout_label": "IC50", "meas_value": "313 nM"}
{"compound": "CCCCC(C)(C)c1cc(O)c([C@H]2C=C(CO)[C@H]3C[C@@H]2C3(C)C)c(O)c1 [Formula II]", "readout_label": "IC50", "meas_value": "181 nM"}
